assay: dynamic solubility in water and three biological solvents; type: physicochemical; details: 37 °C, pH 6.5, fassif, thermodynamic from solid

molecule	solubility at 4 h, µg/mL
Cc1cnc(-c2cc(N3CCc4nc(N5CCC(O)CC5)ncc4[C@H]3C)ncc2Cl)c(C)c1 [compound of formula (I)]	240

* * *

assay: dynamic solubility in water and three biological solvents; assay type: physicochemical; details: 37 °C, pH 5, fessif, thermodynamic from solid
experimental-readout: solubility at 2 h (µg/mL)

smiles-data	recorded-number
Cc1cnc(-c2cc(N3CCc4nc(N5CCC(O)CC5)ncc4[C@H]3C)ncc2Cl)c(C)c1	3000

* * *

test: dynamic solubility in water and three biological solvents; format: physicochemical; details: 37 °C, pH 6.5, fassif, thermodynamic from solid

compound	solubility at 24 h (µg/mL)
Cc1cnc(-c2cc(N3CCc4nc(N5CCC(O)CC5)ncc4[C@H]3C)ncc2Cl)c(C)c1 [compound of formula (I)]	220
